Target: UniProt P18031
Sequence (whole entry): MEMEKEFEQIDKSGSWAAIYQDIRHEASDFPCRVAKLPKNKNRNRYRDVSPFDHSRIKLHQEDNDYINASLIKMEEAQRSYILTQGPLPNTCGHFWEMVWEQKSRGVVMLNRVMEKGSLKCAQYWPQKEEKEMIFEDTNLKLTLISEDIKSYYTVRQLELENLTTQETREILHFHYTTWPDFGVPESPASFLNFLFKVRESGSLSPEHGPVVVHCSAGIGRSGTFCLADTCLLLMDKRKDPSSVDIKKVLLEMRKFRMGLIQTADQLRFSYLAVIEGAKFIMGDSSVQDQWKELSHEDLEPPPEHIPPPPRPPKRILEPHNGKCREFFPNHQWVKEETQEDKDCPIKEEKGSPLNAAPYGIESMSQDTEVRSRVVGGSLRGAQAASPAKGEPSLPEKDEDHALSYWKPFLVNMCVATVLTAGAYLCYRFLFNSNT
Experiment: Inhibition of GST-tagged human PTP1B PTPase activity using p-NPP as substrate at 10 uM after 10 mins by spectrophotometry
The source made the active and inactive calls. No cut-off for these calls is given here.
observable: inhibition

[
  {
    "compound": "C=C[C@H]1[C@H](O[C@@H]2O[C@H](CO)[C@@H](O)[C@H](O)[C@H]2O)OC=C(C(=O)O)[C@H]1/C=C/c1cc(C(=O)[O-])c[n+](CC)c1 [LONIJAPOSIDE F]",
    "system_name": "UniProt P18031",
    "observable": "inhibition",
    "reported_measurement": "inactive"
  },
  {
    "compound": "C=C[C@H]1[C@H](O[C@@H]2O[C@H](CO)[C@@H](O)[C@H](O)[C@H]2O)OC=C(C(=O)[O-])[C@H]1/C=C/c1ccc[n+](CCC(=O)O)c1 [LONIJAPOSIDE L]",
    "system_name": "UniProt P18031",
    "observable": "inhibition",
    "reported_measurement": "inactive"
  },
  {
    "compound": "C=C[C@H]1[C@H](O[C@@H]2O[C@H](CO)[C@@H](O)[C@H](O)[C@H]2O)OC=C(C(=O)O)[C@H]1C[C@H]1OC(=O)C(O)=C1c1ccccc1 [LONIPHENYRUVIRIDOSIDE D]",
    "system_name": "UniProt P18031",
    "observable": "inhibition",
    "reported_measurement": "inactive"
  },
  {
    "compound": "C=C[C@H]1[C@H](O[C@@H]2O[C@H](CO)[C@@H](O)[C@H](O)[C@H]2O)OC=C(C(=O)O)[C@H]1/C=C/c1cc(C(=O)[O-])c[n+](CCCC(=O)O)c1 [DEMETHYL LONIJAPOSIDE A]",
    "system_name": "UniProt P18031",
    "observable": "inhibition",
    "reported_measurement": "inactive"
  },
  {
    "compound": "C=C[C@H]1[C@H](O[C@@H]2O[C@H](CO)[C@@H](O)[C@H](O)[C@H]2O)OC=C(C(=O)OC)[C@H]1/C=C/c1ccc[n+](CCO)c1 [LONIJAPOSIDE J]",
    "system_name": "UniProt P18031",
    "observable": "inhibition",
    "reported_measurement": "inactive"
  }
]

###

system: Human immunodeficiency virus 1; test: Antiviral activity against HIV1 infected in 293T cells at 10 uM pretreated for 15 mins prior infection measured after 48 hrs by luciferase reporter gene assay; assay type: functional, organism-based
Calls of active or inactive are those of the source. The rule behind the calls is not given here.

[
  {
    "molecule": "C=C[C@H]1[C@H](O[C@@H]2O[C@H](CO)[C@@H](O)[C@H](O)[C@H]2O)OC=C(C(=O)[O-])[C@H]1/C=C/c1ccc[n+](CCCC(=O)O)c1 [LONIJAPOSIDE M]",
    "Activity": "inactive"
  },
  {
    "molecule": "C=C[C@H]1[C@H](O[C@@H]2O[C@H](CO)[C@@H](O)[C@H](O)[C@H]2O)OC=C(C(=O)[O-])[C@H]1/C=C/c1ccc[n+](CCO)c1 [LONIJAPOSIDE I]",
    "Activity": "inactive"
  },
  {
    "molecule": "C=C[C@H]1[C@H](O[C@@H]2O[C@H](CO)[C@@H](O)[C@H](O)[C@H]2O)OC=C(C(=O)OC)[C@H]1/C=C/c1ccc[n+](CCO)c1 [LONIJAPOSIDE J]",
    "Activity": "inactive"
  },
  {
    "molecule": "O=C(O)C1=CO[C@@H](O[C@@H]2O[C@H](CO)[C@@H](O)[C@H](O)[C@H]2O)[C@H]2[C@@H]1C[C@@H]1C[C@H]2OC=C1c1ccccc1 [LONIPHENYRUVIRIDOSIDE A]",
    "Activity": "inactive"
  },
  {
    "molecule": "C=C[C@H]1[C@H](O[C@@H]2O[C@H](CO)[C@@H](O)[C@H](O)[C@H]2O)OC=C(C(=O)[O-])[C@H]1/C=C/c1ccc[n+](CC(=O)O)c1 [LONIJAPOSIDE K]",
    "Activity": "inactive"
  }
]

###

molecular target: Signal transducer and activator of transcription 3 (Homo sapiens) (UniProt P40763); assay: Inhibition of STAT-3 activity in HELF cells at 10 uM; type: cell-based
Sequence (P40763 whole entry): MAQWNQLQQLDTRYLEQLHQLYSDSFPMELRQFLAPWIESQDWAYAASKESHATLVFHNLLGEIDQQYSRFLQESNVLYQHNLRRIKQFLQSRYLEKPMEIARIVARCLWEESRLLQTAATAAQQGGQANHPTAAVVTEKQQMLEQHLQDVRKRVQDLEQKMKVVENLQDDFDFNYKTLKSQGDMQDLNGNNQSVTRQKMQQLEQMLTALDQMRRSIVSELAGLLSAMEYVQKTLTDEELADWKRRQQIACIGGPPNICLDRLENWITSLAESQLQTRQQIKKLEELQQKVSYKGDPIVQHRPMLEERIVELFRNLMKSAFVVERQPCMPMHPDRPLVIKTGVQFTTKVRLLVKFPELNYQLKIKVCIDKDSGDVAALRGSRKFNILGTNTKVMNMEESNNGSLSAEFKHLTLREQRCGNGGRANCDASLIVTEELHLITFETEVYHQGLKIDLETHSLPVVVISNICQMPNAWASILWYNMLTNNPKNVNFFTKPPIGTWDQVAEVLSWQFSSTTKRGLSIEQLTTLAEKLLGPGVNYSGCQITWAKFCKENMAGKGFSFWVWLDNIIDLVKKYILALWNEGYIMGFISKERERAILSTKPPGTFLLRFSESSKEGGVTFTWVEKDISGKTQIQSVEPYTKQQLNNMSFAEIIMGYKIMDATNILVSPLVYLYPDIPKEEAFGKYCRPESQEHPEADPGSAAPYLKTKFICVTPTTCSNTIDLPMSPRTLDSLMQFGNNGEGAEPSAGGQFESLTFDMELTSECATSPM
# key: entry, value: inhibition

[
  {
    "molecule": "O=C(O)C1=CO[C@@H](O[C@@H]2O[C@H](CO)[C@@H](O)[C@H](O)[C@H]2O)[C@H]2[C@@H]1C[C@@H]1C[C@H]2OC=C1c1ccccc1 [LONIPHENYRUVIRIDOSIDE A]",
    "inhibition": "45.7%"
  },
  {
    "molecule": "C=C[C@H]1[C@H](O[C@@H]2O[C@H](CO)[C@@H](O)[C@H](O)[C@H]2O)OC=C(C(=O)O)[C@H]1C[C@H]1OC(=O)C(O)=C1c1ccccc1 [LONIPHENYRUVIRIDOSIDE D]",
    "inhibition": "48.8%"
  },
  {
    "molecule": "C=C[C@H]1[C@H](O[C@@H]2O[C@H](CO)[C@@H](O)[C@H](O)[C@H]2O)OC=C2C(=O)O[C@H](/C(=C(/O)C(=O)O)c3ccccc3)C[C@@H]21 [LONIPHENYRUVIRIDOSIDE C]",
    "inhibition": "30.9%"
  },
  {
    "molecule": "C=C[C@H]1[C@H](O[C@@H]2O[C@H](CO)[C@@H](O)[C@H](O)[C@H]2O)OC=C2C(=O)O[C@@H](/C(=C(/O)C(=O)O)c3ccccc3)C[C@H]21 [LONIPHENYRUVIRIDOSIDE B]",
    "inhibition": "25.8%"
  }
]
